target of assay: HLA-B*4002 (human)
procedure text: competitive inhibition of labeled reference peptide binding to purified HLA
run parameters: remark: other sources report otherwise
assay metric: pIC50
For clarity, pIC50 is expressed as the negative log10 of concentration in mol/L.

Record GEYFTLQI [GEYFRLQI (p53, position 325, 8-mer)] . Reported pIC50: 7.22

Now examine the next entry.
In plain terms, RELNEALEL [… (p53, position 342, 9-mer)] has a documented pIC50 of 7.52
